Cited source for all entries: PubChem BioAssay (NCI)

test system: IGROV1 ovarian; assay: NCI-60 one-dose screen, 48 h (100 = growth as untreated, 0 = no growth, -100 = all killed); conditions: 10 µM unless noted
Compounds without any hit were thinned out: in the full panel of roughly 83,000, 20% have a hit. Activity calls are given as the source filed them. How the source made its calls: active means growth percent below 10; inactive means the rest.
Assay endpoint: growth

Study these solved cases before continuing.
# Compound, growth
records = [
    ("COc1cc(F)c(/C=C/c2cc(/C=C/c3cc(OC)c(OC)cc3F)n(-c3cc(F)cc(F)c3)n2)cc1OC", "88.6% (inactive)"),
    ("CCN1C(=O)/C(=c2\\sc3n(c2=O)C2C(NN=3)N(CC)C(=O)N2CC)c2ccccc21 (stereo not drawn)", "29% (inactive)"),
    ("COc1ccc(-c2cc(-c3cccnc3)nc3sc4c(Cl)nnnc4c23)cc1OC", "81.6% (inactive)"),
]

Now for another entry.
// fetch IGROV1 ovarian growth for C=C(C)[C@@H]1CC[C@]2(C(=O)O)CC[C@]3(C)[C@H](CC[C@@H]4[C@@]5(C)CCC(N)C(C)(C)[C@@H]5CC[C@]43C)[C@@H]12 (stereo partly drawn) 74.4% (inactive)
